Every entry's value here was drawn from patent US20250060376A1.

Target: T1, fragment DIR-II (last 27 amino acids of the sequence encoded by the retained intron of DIR) (human)
T1 construct: also called target fragment DIR-II
T1 peptide: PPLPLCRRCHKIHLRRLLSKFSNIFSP
Experiment: ELISA, DIR-II coated; mAb (1 mg/mL) diluted 1:18k
measured_endpoint: absorbance at 450 nm

Q: // absorbance at 450 nm lookup, key: DIR antibody IR-II-5 (antibody, V domains shown, Monoclonal antibody) VH: QVQLQQSGAEVMKPGASVKISCKATGYTFSSYWIEWIKQRPGHGLEWIGEILPGGYNTNSNENFKGKATFTADTSSNTAYMQLSSLTSEDSAVYYCARSGMITTTGDYYAMDYWGQGTSVTVSS VL: DIELTQSPASLAVSLGQRATISCKASQSVDYDGESYMNWYQQKPGQPPKLLIYAASNLESGIPARFSGSGSGTDFTLNIHPVEEEDAATYYCQQSNDDPRTFGGGTKLEIK
Result: 0.387 absorbance (450 nm)

Q: Moving on to the next binder: DIR antibody IR-II-7 (antibody, V domains shown, Monoclonal antibody) VH: QVQLQQSGAELMKPGASVKISCKATGYTFSNYWIEWIKQRPGHGLEWIGEILPGSYYSTNYNEKFKDKATFTADTSSNTAYIQLSSLTSEDSAVYYCARSGIITTRGDYFAMDYWGQGTSVTVSS VL: DIVLTQSPASLAVSLGQRATISCKASQSVDYDGDSYMNWYQQKPGQPPKLLMYAASNLESGIPARFSGSGSGTDFTLNIHPVEEEDAATYYCQQSNEDPRTFGGGTKLEIK
Result: 1.16 absorbance (450 nm)

Q: Moving on to the next binder: DIR antibody IR-II-10 (A2D10) (antibody, V domains shown, Monoclonal antibody) VH: EVQLQQSGPELVKPGASVKISCKTSGYTFTEYTMHWVKQSHGKSLEWIGGIYPHNGGTNYNQKFKGKATLTVDKSSSTAYMELRSLTSEDSAVYYCTEDLTFDYWGQGTTLTVSS VL: DIQMTQTTSSLSASLGDRVTISCSASQDISNYLNWYQQKPDGTVKLLIYYTSSLHSGVPSRFSGSGSGTDYSLTISNLEPEDIATYHCLQYSKLPFTFGSGTKLEIK
Result: 0.142 absorbance (450 nm)
